System: B16
test.description: The compound was tested […] for 50% growth inhibition against B16 melanoma cells.
Type: functional, Mus musculus
measurement.type: GI50 (µM)
Please give a number only; it is taken to be in µM.

Example cases with answers are listed next.
molecule	assayed.system	GI50, µM
CCOC(=O)CNC(=O)[C@@H](CSCc1ccc(Br)cc1)NC(=O)CCC(N)C(=O)OCC (some centres undefined)	B16	14
CCOC(=O)CNC(=O)C(CSC(=O)N(O)c1ccc(Br)cc1)NC(=O)CCC(N)C(=O)OCC.Cl (centres undefined)	B16	11

Kindly note the recorded GI50 for CCOC(=O)CNC(=O)C(CSC(=O)N(O)c1ccc(Cl)cc1)NC(=O)CCC(N)C(=O)OCC.Cl (centres undefined) , which is 15
